meta.source: ChEMBL document CHEMBL2440040

Tested on: Streptococcus pneumoniae
protocol_details: Antibacterial activity against erythromycin-sensitive Streptococcus pneumoniae 12-10 by broth microdilution method
Format: functional
measure: MIC (µg/mL)
Report as a plain number; the unit µg/mL is understood.

Problem: Value lookup for MIC; key = "CC[C@H]1OC(=O)[C@H](C)[C@@H](O[C@H]2C[C@@](C)(OC)[C@@H](O[C@@H]3O[C@H](C)[C@@H](O)[C@H](N(C)C)[C@H]3O)[C@H](C)O2)[C@H](C)[C@@H](O[C@@H]2O[C@H](C)C[C@H](N(C)C)[C@H]2O)[C@@](C)(OC)C[C@@H](C)C(=O)[C@H](C)[C@H]2OC(=O)O[C@@]21C"
Solution: 1

Problem: Value lookup for MIC; key = CC[C@H]1OC(=O)[C@H](C)[C@@H](O[C@H]2C[C@@](C)(OC)[C@@H](O)[C@H](C)O2)[C@H](C)[C@@H](O[C@@H]2O[C@H](C)C[C@H](N(C)C)[C@H]2O)[C@](C)(OC)C[C@@H](C)C(=O)[C@H](C)[C@@H](O)[C@]1(C)O [CLARITHROMYCIN]
Solution: 1

Problem: Value lookup for MIC; key = "CC[C@H]1OC(=O)[C@H](C)[C@@H](O[C@H]2C[C@@](C)(OC)[C@@H](O[C@@H]3O[C@H](C)[C@@H](O)[C@H](N(C)C)[C@H]3O)[C@H](C)O2)[C@H](C)[C@@H](O[C@@H]2O[C@H](C)C[C@H](N(C)C)[C@H]2O)[C@@](C)(OC)C[C@@H](C)C(=O)[C@H](C)[C@@H](O)[C@]1(C)O"
Solution: 2

---

Test system: Streptococcus pneumoniae
protocol_details: Antibacterial activity against erythromycin-sensitive Streptococcus pneumoniae 12-4 by broth microdilution method
Format: functional
Could you please report measured MIC for the items listed next?
Report as a plain number; the unit µg/mL is understood.

Problem: Value lookup for MIC; key = "CC[C@H]1OC(=O)[C@H](C)[C@@H](O[C@H]2C[C@@](C)(OC)[C@@H](O[C@@H]3O[C@H](C)[C@@H](OCc4ccccc4)[C@H](N(C)C)[C@H]3O)[C@H](C)O2)[C@H](C)[C@@H](O[C@@H]2O[C@H](C)C[C@H](N(C)C)[C@H]2O)[C@@](C)(OC)C[C@@H](C)C(=O)[C@H](C)[C@H]2OC(=O)O[C@@]21C"
Solution: 32

Problem: Value lookup for MIC; key = "CC[C@H]1OC(=O)[C@H](C)[C@@H](O[C@H]2C[C@@](C)(OC)[C@@H](O[C@@H]3O[C@H](C)[C@@H](OCc4ccccc4)[C@H](N(C)C)[C@H]3OC(=O)c3ccccc3)[C@H](C)O2)[C@H](C)[C@@H](O[C@@H]2O[C@H](C)C[C@H](N(C)C)[C@H]2O)[C@@](C)(OC)C[C@@H](C)C(=O)[C@H](C)[C@@H](O)[C@]1(C)O"
Solution: 32

---

Tested on: Streptococcus pneumoniae
protocol_details: Antibacterial activity against erythromycin-resistant Streptococcus pneumoniae 12-6 by broth microdilution method
Format: functional
Could you please report measured MIC for the items listed next?

Problem: Value lookup for MIC; key = "CC[C@H]1OC(=O)[C@H](C)[C@@H](O[C@H]2C[C@@](C)(OC)[C@@H](O[C@@H]3O[C@H](C)[C@@H](OCc4ccccc4)[C@H](N(C)C)[C@H]3OC(=O)c3ccccc3)[C@H](C)O2)[C@H](C)[C@@H](O[C@@H]2O[C@H](C)C[C@H](N(C)C)[C@H]2O)[C@@](C)(OC)C[C@@H](C)C(=O)[C@H](C)[C@H]2OC(=O)O[C@@]21C"
Solution: > 32 µg/mL

Problem: Value lookup for MIC; key = "CC[C@H]1OC(=O)[C@H](C)[C@@H](O[C@H]2C[C@@](C)(OC)[C@@H](O[C@@H]3O[C@H](C)[C@@H](O)[C@H](N(C)C)[C@H]3OC(=O)c3ccccc3)[C@H](C)O2)[C@H](C)[C@@H](O[C@@H]2O[C@H](C)C[C@H](N(C)C)[C@H]2O)[C@@](C)(OC)C[C@@H](C)C(=O)/C(C)=C/[C@]1(C)O"
Solution: > 32 µg/mL

Problem: Value lookup for MIC; key = "CC[C@H]1OC(=O)[C@H](C)[C@@H](O[C@H]2C[C@@](C)(OC)[C@@H](O[C@@H]3O[C@H](C)[C@@H](O)[C@H](N(C)C)[C@H]3O)[C@H](C)O2)[C@H](C)[C@@H](O[C@@H]2O[C@H](C)C[C@H](N(C)C)[C@H]2O)[C@@](C)(OC)C[C@@H](C)C(=O)[C@H](C)[C@H]2OC(=O)O[C@@]21C"
Solution: 16 µg/mL

Problem: Value lookup for MIC; key = "CC[C@H]1OC(=O)[C@H](C)C(=O)[C@H](C)[C@@H](O[C@@H]2O[C@H](C)C[C@H](N(C)C)[C@H]2O)[C@](C)(OC)C[C@@H](C)C(=O)[C@H](C)[C@H]2N(CCCCn3cnc(-c4cccnc4)c3)C(=O)O[C@]12C"
Solution: ≤ 2 µg/mL

Problem: Value lookup for MIC; key = "CC[C@H]1OC(=O)[C@H](C)[C@@H](O[C@H]2C[C@@](C)(OC)[C@@H](O[C@@H]3O[C@H](C)[C@@H](O)[C@H](N(C)C)[C@H]3OC(=O)c3ccccc3)[C@H](C)O2)[C@H](C)[C@@H](O[C@@H]2O[C@H](C)C[C@H](N(C)C)[C@H]2O)[C@@](C)(OC)C[C@@H](C)C(=O)[C@H](C)[C@H]2OC(=O)O[C@@]21C"
Solution: 32 µg/mL

Problem: Value lookup for MIC; key = "CC[C@H]1OC(=O)[C@H](C)[C@@H](O[C@H]2C[C@@](C)(OC)[C@@H](O[C@@H]3O[C@H](C)[C@@H](O)[C@H](N(C)C)[C@H]3O)[C@H](C)O2)[C@H](C)[C@@H](O[C@@H]2O[C@H](C)C[C@H](N(C)C)[C@H]2O)[C@@](C)(OC)C[C@@H](C)C(=O)[C@H](C)[C@@H](O)[C@]1(C)O"
Solution: 32 µg/mL

Problem: Value lookup for MIC; key = "CC[C@H]1OC(=O)[C@H](C)[C@@H](O[C@H]2C[C@@](C)(OC)[C@@H](O[C@@H]3O[C@H](C)[C@@H](OCc4ccccc4)[C@H](N(C)C)[C@H]3OC(=O)c3ccccc3)[C@H](C)O2)[C@H](C)[C@@H](O[C@@H]2O[C@H](C)C[C@H](N(C)C)[C@H]2O)[C@@](C)(OC)C[C@@H](C)C(=O)[C@H](C)[C@@H](O)[C@]1(C)O"
Solution: 32 µg/mL

Problem: Value lookup for MIC; key = "CC[C@H]1OC(=O)[C@H](C)[C@@H](O[C@H]2C[C@@](C)(OC)[C@@H](O[C@@H]3O[C@H](C)[C@@H](OCc4ccccc4)[C@H](N(C)C)[C@H]3O)[C@H](C)O2)[C@H](C)[C@@H](O[C@@H]2O[C@H](C)C[C@H](N(C)C)[C@H]2O)[C@@](C)(OC)C[C@@H](C)C(=O)[C@H](C)[C@@H](O)[C@]1(C)O"
Solution: 32 µg/mL

Problem: Value lookup for MIC; key = "CC[C@H]1OC(=O)[C@H](C)[C@@H](O[C@H]2C[C@@](C)(OC)[C@@H](O[C@@H]3O[C@H](C)[C@@H](OCc4ccccc4)[C@H](N(C)C)[C@H]3O)[C@H](C)O2)[C@H](C)[C@@H](O[C@@H]2O[C@H](C)C[C@H](N(C)C)[C@H]2O)[C@@](C)(OC)C[C@@H](C)C(=O)[C@H](C)[C@H]2OC(=O)O[C@@]21C"
Solution: 32 µg/mL

Problem: Value lookup for MIC; key = "CC[C@H]1OC(=O)[C@H](C)[C@@H](O[C@H]2C[C@@](C)(OC)[C@@H](O[C@@H]3O[C@H](C)[C@@H](O)[C@H](N(C)C)[C@H]3OC(=O)c3ccccc3)[C@H](C)O2)[C@H](C)[C@@H](O[C@@H]2O[C@H](C)C[C@H](N(C)C)[C@H]2O)[C@@](C)(OC)C[C@@H](C)C(=O)[C@H](C)[C@@H](O)[C@]1(C)O"
Solution: > 32 µg/mL

Problem: Value lookup for MIC; key = "CC[C@H]1OC(=O)[C@H](C)[C@@H](O[C@H]2C[C@@](C)(OC)[C@@H](O)[C@H](C)O2)[C@H](C)[C@@H](O[C@@H]2O[C@H](C)C[C@H](N(C)C)[C@H]2O)[C@](C)(OC)C[C@@H](C)C(=O)[C@H](C)[C@@H](O)[C@]1(C)O"
Solution: > 32 µg/mL
